protocol text: clinical
measurement conditions: human, in vivo, 120 mg, Cmax
readout kind: Cmax (ng/mL)
Unit ng/mL implied. Number only.

Request: Look up Cmax for this molecule: Cc1nc(-c2ccc(OCC(C)C)c(C#N)c2)sc1C(=O)O
Result: 4470

====

protocol text: clinical
measurement conditions: human, in vivo, 160 mg, Vss/F
readout kind: Vd/F
Express the reported value numerically, then name its unit.

Request: Report Vd/F for Cc1nc(-c2ccc(OCC(C)C)c(C#N)c2)sc1C(=O)O please.
Result: 40.7 L

====

protocol text: clinical
measurement conditions: human, in vivo, 30 mg, AUC (AUC∞)
readout kind: AUC(0-inf) (ng·h/mL)
Please reply with the bare figure in ng·h/mL and do not write the unit itself.

Request: Given Cc1nc(-c2ccc(OCC(C)C)c(C#N)c2)sc1C(=O)O , state its recorded AUC(0-inf).
Result: 2550

====

protocol text: clinical
measurement conditions: human, in vivo, 10 mg, tmax
readout kind: Tmax (min)
Dear colleague, please return just the value in min, with no unit written.

Request: Field request: Tmax | item: Cc1nc(-c2ccc(OCC(C)C)c(C#N)c2)sc1C(=O)O [Febuxostat]
Result: 59.4

====

protocol text: clinical
measurement conditions: human, in vivo, 20 mg, Cmax
readout kind: Cmax

Request: Entry Cc1nc(-c2ccc(OCC(C)C)c(C#N)c2)sc1C(=O)O has what Cmax?
Result: 1.11 µg/mL

====

protocol text: clinical
measurement conditions: human, in vivo, 90 mg, tmax
readout kind: Tmax (min)
Field format: number, assumed min, no unit text.

Request: Reported Tmax for Cc1nc(-c2ccc(OCC(C)C)c(C#N)c2)sc1C(=O)O : what is it?
Result: 57

====

protocol text: clinical
measurement conditions: human, in vivo, 10 mg, AUC (AUC24)
readout kind: AUC (ng·h/mL)
# value in ng·h/mL; strip the unit string

Request: Quick one: AUC of Cc1nc(-c2ccc(OCC(C)C)c(C#N)c2)sc1C(=O)O [Febuxostat] ?
Result: 950

====

protocol text: clinical
measurement conditions: human, in vivo, 180 mg, Vss/F
readout kind: Vd/F (L)
Write the value in L as a bare number.

Request: Could you tell me which Vd/F is on file for Cc1nc(-c2ccc(OCC(C)C)c(C#N)c2)sc1C(=O)O [Febuxostat] ?
Result: 54.6

====

protocol text: clinical
measurement conditions: human, in vivo, 70 mg, Cmax
Description: The development of the previously described embodiments resulted from a long drug development process. […] The study was also designed to assess the pharmacokinetic and pharmacodynamic profiles of multiple daily oral doses over a range of doses and ranges, including both once-daily and twice-daily administration. Samples were analyzed by high performance liquid chromatography.
readout kind: Cmax (ng/mL)
Express your answer in ng/mL, writing the number without its unit.

Request: Requested field: Cmax. Item: Cc1nc(-c2ccc(OCC(C)C)c(C#N)c2)sc1C(=O)O
Result: 3080

====

protocol text: clinical
measurement conditions: human, in vivo
readout kind: Vd

Request: Please look up its Vd: Cc1nc(-c2ccc(OCC(C)C)c(C#N)c2)sc1C(=O)O
Result: ~0.7 L/kg

====

protocol text: clinical
measurement conditions: human, in vivo, 240 mg, Vss/F
readout kind: Vd/F (L)
Hi! Could you send only the number? It should be in L, unit omitted.

Request: What value of Vd/F has been recorded for this entry: Cc1nc(-c2ccc(OCC(C)C)c(C#N)c2)sc1C(=O)O [Febuxostat]
Result: 54.6

src = patent US9248119B2
